These data points were gathered from PubChem BioAssay (NCI).

Experiment: NCI Yeast Anticancer Drug Screen. Data for the mec2-1 strain (AID 157)
Details: S. cerevisiae mec2-1 strain, at 50.0 µM, stronger effect = higher value
The panel holds about 79,000 compounds, 15% with a hit somewhere; the sample as a whole holds those more often. The source made the active and inactive calls. Rule as the data show it: active = growth inhibition above about 70%; inactive = the rest.
Each item that follows carries a reported growth inhibition.

Give its growth inhibition value. Item: Cc1cccc(C)c1NC(=O)/C(CC(=O)CC(c1ccccc1)c1c(O)c2ccccc2oc1=O)=N/O (centres undefined)
-5.8% (inactive)

// query: O=[As]c1ccc(Cl)cc1Cl (centres undefined)
99.7% (active)

====

Assay: NCI Yeast Anticancer Drug Screen. Data for the bub3 strain (AID 167)
Details: S. cerevisiae bub3 mutant strain, at 3.7 µM
This is part of a sample that, as a whole, favours compounds with a hit. Of some 79,000 tested, about 15% had one in any assay. Calls of active or inactive are those of the source. No stated cut-off is given here; in the data, active means growth inhibition above about 70%; inactive means the rest.
Hi there, use one of these labels in your reply, thanks! true (1) for active, false (0) for inactive

Compound	Category label
O=C(O)CCCc1cc(I)c(N(CCCl)CCCl)c(I)c1	false (0)
C[C@]12CCc3nonc3C1CC[C@@H]1C2CC[C@]2(C)C(=O)CCC12 (stereo partly drawn)	false (0)
O=C1C=C(CN(CCCl)CCCl)C(=O)C=C1CN(CCCl)CCCl	false (0)

Which outcome did this test record for the compound COc1cccc2c1C(=O)c1c(O)c3c(c(O)c1C2=O)C[C@@](O)(C(C)=O)C[C@@H]3OC1CC(N)C(OC2CC(O)C(O)C(C)O2)C(C)O1 (stereo partly drawn) ?
false (0)

Entry to check: O=C(O)C1C2C=CC(C2)C1c1ccccc1 (stereo not drawn)
false (0)
